Values from ChEMBL document CHEMBL5252622

Each item that follows carries a reported IC50.
measured target: Voltage-gated inwardly rectifying potassium channel KCNH2 (Homo sapiens, UniProt Q12809)
Sequence (Q12809 whole entry): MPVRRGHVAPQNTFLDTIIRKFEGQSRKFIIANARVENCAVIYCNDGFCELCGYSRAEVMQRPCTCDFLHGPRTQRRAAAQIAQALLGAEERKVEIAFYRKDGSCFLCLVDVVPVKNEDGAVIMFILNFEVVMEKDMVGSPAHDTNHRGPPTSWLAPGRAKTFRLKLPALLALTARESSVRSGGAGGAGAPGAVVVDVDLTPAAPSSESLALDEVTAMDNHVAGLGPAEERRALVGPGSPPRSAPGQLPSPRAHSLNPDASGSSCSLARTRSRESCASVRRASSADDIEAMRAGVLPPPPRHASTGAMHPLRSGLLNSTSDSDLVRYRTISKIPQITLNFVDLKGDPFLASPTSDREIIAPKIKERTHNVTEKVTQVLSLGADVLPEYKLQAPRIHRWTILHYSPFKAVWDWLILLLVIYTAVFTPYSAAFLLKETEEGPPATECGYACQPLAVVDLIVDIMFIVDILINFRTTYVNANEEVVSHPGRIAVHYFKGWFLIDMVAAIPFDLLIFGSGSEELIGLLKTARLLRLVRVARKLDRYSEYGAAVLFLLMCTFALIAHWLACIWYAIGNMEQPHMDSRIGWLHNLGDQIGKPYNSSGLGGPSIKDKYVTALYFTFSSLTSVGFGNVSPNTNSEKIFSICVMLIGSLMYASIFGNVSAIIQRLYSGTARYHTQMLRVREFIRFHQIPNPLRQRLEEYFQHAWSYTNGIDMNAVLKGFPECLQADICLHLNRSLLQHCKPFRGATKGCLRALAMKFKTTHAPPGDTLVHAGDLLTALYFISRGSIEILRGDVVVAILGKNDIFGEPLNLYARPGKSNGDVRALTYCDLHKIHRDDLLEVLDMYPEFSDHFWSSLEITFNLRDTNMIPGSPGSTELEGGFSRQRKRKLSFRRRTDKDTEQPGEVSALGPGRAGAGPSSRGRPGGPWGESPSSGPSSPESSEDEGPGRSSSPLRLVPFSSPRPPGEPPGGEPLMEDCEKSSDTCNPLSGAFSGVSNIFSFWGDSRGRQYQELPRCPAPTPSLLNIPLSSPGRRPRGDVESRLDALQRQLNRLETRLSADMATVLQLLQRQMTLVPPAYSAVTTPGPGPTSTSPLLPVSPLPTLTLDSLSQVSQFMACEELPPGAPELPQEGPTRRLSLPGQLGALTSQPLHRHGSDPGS
test method notes: Inhibition of recombinant hERG in the presence of dofetilide by competitive binding assay

- line notation: "CSc1c(C#N)c(=O)c2ccc(F)cc2n1-c1c(Cl)cccc1Cl"
  IC50: "> 30 µM"
- line notation: "Cc1cc(=O)c2c(F)cncc2n1-c1c(Cl)cc(C#N)cc1Cl"
  IC50: "> 30 µM"
- line notation: "O=c1cc(CO)n(-c2c(Cl)cccc2Cl)c2c(Cl)cnc(OC[C@H](O)CO)c12"
  IC50: "> 50 µM"
- line notation: "O=c1cc(CO)n(-c2c(Cl)cccc2Cl)c2c(Cl)cnc(OC[C@@H](O)CO)c12"
  IC50: "> 50 µM"
